Where do these numbers come from? They come from paper PMC11872463.

Here, each record is paired with measured pKd data.
# Target entity: FoxP3 (Homo sapiens)
# Sequence (Q9BZS1 182-421): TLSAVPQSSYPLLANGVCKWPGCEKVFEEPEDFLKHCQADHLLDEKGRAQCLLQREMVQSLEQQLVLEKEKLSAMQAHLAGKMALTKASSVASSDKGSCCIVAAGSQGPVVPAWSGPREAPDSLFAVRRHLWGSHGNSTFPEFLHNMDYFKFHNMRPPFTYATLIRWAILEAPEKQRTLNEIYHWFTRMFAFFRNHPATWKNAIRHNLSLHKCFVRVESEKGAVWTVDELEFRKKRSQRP
Hey, just a heads up that pKd is the negative log base 10 of the concentration in molar.

IN: Fill in: pKd of CCN(CC)CCCC(C)Nc1c2ccc(Cl)cc2nc2ccc(OC)cc12 (centres unmarked) is ___
OUT: 5.39

IN: Entry to check: CCN(CC)CCCC(C)Nc1c2cc(OC)ccc2nc2cc(Cl)c(N)cc12 (centres unmarked)
OUT: 5.16
